# assay protocol: Half life in human plasma at 0.015 mg/kg, iv
# Assay type: ADME, organism-based
measurement label: half-life (min)
Kindly answer with a numeric value in min, unit omitted.

Could you share which half-life value was measured for `CC(O)(P(=O)(O)O)P(=O)(O)O` ?
60

###

# assay protocol: Half life in human plasma at 2.5 to 4 mg/kg, iv
# Assay type: ADME, organism-based
measurement label: half-life (min)
Return type: number; implicit unit min.

Given `O=P(O)(O)C(Cl)(Cl)P(=O)(O)O` , state its recorded half-life.
60

###

# Tested on: Hydroxyapatite
# assay protocol: Binding affinity to hydroxyapatite at 3.2 to 3.7 mM after 1 hr by NMR analysis relative to control
For each record, write down the corresponding Activity.
Write the answer as a number in %, unit excluded.

Return reported Activity; argument: `O=P(O)(O)C(Cl)(Cl)P(=O)(O)O`
41.9

Proceed to `CC(O)(P(=O)(O)O)P(=O)(O)O`
70

`O=P(O)(O)CP(=O)(O)O` ?
70

Try this molecule next: `NCCCC(O)(P(=O)(O)O)P(=O)(O)O`
70
